Provenance of the data: patent US12528767B2

target_system: Full length Human HDAC6 (Homo sapiens, UniProt Q9UBN7)
Sequence (Q9UBN7 1-1215): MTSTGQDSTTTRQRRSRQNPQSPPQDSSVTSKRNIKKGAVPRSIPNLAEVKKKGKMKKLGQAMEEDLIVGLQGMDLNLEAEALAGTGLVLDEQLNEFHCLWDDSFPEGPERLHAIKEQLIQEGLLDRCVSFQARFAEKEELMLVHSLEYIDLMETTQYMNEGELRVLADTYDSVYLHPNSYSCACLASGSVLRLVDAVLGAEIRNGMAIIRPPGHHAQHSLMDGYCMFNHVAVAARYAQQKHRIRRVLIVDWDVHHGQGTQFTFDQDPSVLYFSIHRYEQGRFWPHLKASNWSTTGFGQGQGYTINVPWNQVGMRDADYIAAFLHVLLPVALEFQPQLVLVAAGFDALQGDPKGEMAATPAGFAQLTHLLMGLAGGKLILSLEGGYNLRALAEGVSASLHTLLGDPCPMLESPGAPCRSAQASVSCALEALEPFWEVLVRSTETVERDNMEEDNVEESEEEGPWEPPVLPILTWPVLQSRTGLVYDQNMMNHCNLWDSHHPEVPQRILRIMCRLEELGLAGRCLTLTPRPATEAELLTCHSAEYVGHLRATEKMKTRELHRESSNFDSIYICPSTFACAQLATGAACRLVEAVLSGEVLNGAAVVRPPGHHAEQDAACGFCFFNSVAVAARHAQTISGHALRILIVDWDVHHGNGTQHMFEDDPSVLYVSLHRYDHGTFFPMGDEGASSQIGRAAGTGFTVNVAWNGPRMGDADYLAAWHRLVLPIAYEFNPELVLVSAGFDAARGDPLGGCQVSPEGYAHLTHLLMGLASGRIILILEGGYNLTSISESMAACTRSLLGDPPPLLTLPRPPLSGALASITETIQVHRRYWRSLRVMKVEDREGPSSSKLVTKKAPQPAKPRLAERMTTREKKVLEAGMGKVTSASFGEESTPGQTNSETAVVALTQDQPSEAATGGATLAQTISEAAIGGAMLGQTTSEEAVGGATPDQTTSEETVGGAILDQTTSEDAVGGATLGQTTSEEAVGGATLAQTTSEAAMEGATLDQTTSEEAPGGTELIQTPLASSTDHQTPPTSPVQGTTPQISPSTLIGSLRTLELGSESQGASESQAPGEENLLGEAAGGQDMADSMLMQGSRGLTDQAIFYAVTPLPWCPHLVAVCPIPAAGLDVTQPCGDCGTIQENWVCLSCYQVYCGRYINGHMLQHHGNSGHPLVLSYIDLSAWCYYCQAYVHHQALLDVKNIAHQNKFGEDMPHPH
test_parameters: read-out: In vitro enzymatic IC50, HDAC Paralog 6; Table 2
Could you please report measured IC50 for the items listed next?

Query: IC50; subject: `O=C(NO)c1cc(F)c2c(c1)CCN(CC13CC4CC(CC(C4)C1)C3)C2`
1 to 100 nM

Query: IC50; subject: `O=C(NO)c1cc(F)c2c(c1)CCN(C1CC3(CCC3)C1)C2`
1 to 100 nM

Query: IC50; subject: `O=C(NO)c1ccc(CN2C3CCCC2CCC3)c(F)c1`
100 to 1000 nM

Query: IC50; subject: O=C(NO)c1ccc(CN2C[C@@H]3CC[C@H]2CO3)c(F)c1 (single isomer, unassigned)
1 to 100 nM

Query: IC50; subject: `O=C(NO)c1ccc(CN2CCC3(CCCCC3)C2)c(F)c1`
1 to 100 nM
